tested on: CAKI-1 renal; assay: NCI tumour cell line growth inhibition, 48 h
I'd appreciate it if you could supply TGI values for the items below.
Please reply with the bare figure in µM and do not write the unit itself.

The recorded TGI with CAKI-1 renal for [Se]=P(c1ccccc1)(c1ccccc1)c1ccc(C(c2ccccc2)=P(c2ccccc2)(c2ccccc2)c2ccccc2)cc1 was 8.5

The recorded TGI with CAKI-1 renal for Cn1c(=O)c2c(nc3n(Cc4ccccc4)c(=O)c(NCCBr)cn23)n(C)c1=O was 37.6

The recorded TGI with CAKI-1 renal for COc1cc(/C=C\[N+](=O)[O-])ccc1OCc1ccccc1 was 13.2

The recorded TGI with CAKI-1 renal for C=C1C(=O)OC2CC1C(O)C/C(C)=C/CC/C(C)=C/C(O)CC2C (stereo unspecified) was 8.39

The recorded TGI with CAKI-1 renal for NCCCn1c2ccccc2c2c3c(c4c(c21)CCC(O)CC4)C(=O)NC3=O (stereo unspecified) was 16.6

The recorded TGI with CAKI-1 renal for CCCCCCCCCCCCCCCCSCC(COC)COP(=O)([O-])OCC[N+](C)(C)C (stereo unspecified) was 12.7

The recorded TGI with CAKI-1 renal for ClC(Cl)c1nc(-c2cccnc2)n2nc(-c3ccccc3)cc2n1 was 5.51

The recorded TGI with CAKI-1 renal for COc1cc2cc(C(=O)N3C[C@@H](CCl)c4c3cc(N)c3ccccc43)[nH]c2c(OC)c1OC was 0.0364

The recorded TGI with CAKI-1 renal for COc1cc(/C=C2\CC3C4CC=C5C[C@@H](OC(C)=O)CC[C@]5(C)C4CC[C@]3(C)C2=O)ccc1OCCCn1ccnc1 (stereo partly specified) was 27.3

The recorded TGI with CAKI-1 renal for O=c1nc(Nc2cccc(Cl)c2)oc2cc(Cl)oc(=O)c12 was 21.5

The recorded TGI with CAKI-1 renal for COc1ccc(-c2cc(/C=C3\C(=O)Nc4ccc(Cl)cc43)[nH]n2)cc1 was 13.8

The recorded TGI with CAKI-1 renal for CCOC(=O)C(=Cc1ccccc1[N+](=O)[O-])C(=O)OCC was 14.3

The recorded TGI with CAKI-1 renal for C=C1C(=O)OC2(C)C3CCC(C3)C12 (stereo unspecified) was 99.4

The recorded TGI with CAKI-1 renal for CN(C)CCCN1c2nc3ccccc3cc2Sc2cc3ccccc3nc21 was 3.01
